Test system: Cryptococcus neoformans
RECORDED_CONDITIONS: Concentration 32 ug.mL-1; ASSAY_TEST Inhibition of Fungal Growth; detection method Resazurin; Absorption (OD600-OD570); plate type 384well; NBS; CORNING #3640
Description: Antifungal activity against Cryptococcus neoformans H99 ATCC 208821 (CO-ADD:FG_002); MIC in YNB media using NBS plates, by Resazurin OD(600-570)
Potency and affinity values are given separately.
Below, each of the compounds is paired with its reported Inhibition value.
ATTRIBUTE_MEASURED: Inhibition

[[record]]
compound = "O=c1c2sccc2n2c(=O)n(Cc3c(F)cccc3Cl)nc2n1Cc1cccs1"
result_value = "-29.08%"

[[record]]
compound = "COc1ccc(NC(=O)CSc2nnc3c(=O)n(-c4cccc(F)c4)ccn23)cc1OC"
result_value = "-8.06%"

[[record]]
compound = "Cc1cccc(NC(=O)Cn2nc3c(SC4CCCCC4)nccn3c2=O)c1C"
result_value = "-15.81%"

[[record]]
compound = "COC(=O)c1ccc(NC(=O)Cn2nc3nc(N4CCCCCC4)ccn3c2=O)cc1"
result_value = "-8.37%"

[[record]]
compound = "COc1ccc(NC(=O)Cn2nc3c(Sc4ccccc4)nccn3c2=O)cc1"
result_value = "-16%"

[[record]]
compound = "Cc1ccc(Oc2nc3ccccc3n3c(=O)n(CC(=O)Nc4ccc5c(c4)OCO5)nc23)cc1"
result_value = "-25.85%"

[[record]]
compound = "O=C(Cn1nc2n(Cc3ccc(F)cc3)c(=O)c3ccccc3n2c1=O)Nc1ccc2c(c1)OCO2"
result_value = "-6.14%"

[[record]]
compound = "COc1cc(NC(=O)C(C)Sc2nnc3c(=O)n(-c4cccc(OC)c4)ccn23)cc(OC)c1 (stereo not given)"
result_value = "-10.32%"

[[record]]
compound = "Cc1nnc2c(S(=O)(=O)N(Cc3cc(F)cc(F)c3)c3cccc(F)c3)cccn12"
result_value = "-8.02%"

[[record]]
compound = "Cc1ccc2c(c1)N(C(=O)Cn1nc3ccc(SC(C)(C)C)nn3c1=O)CCO2"
result_value = "-18.35%"

[[record]]
compound = "O=c1c2sccc2n2c(=O)n(Cc3ccc(Cl)cc3)nc2n1Cc1cccs1"
result_value = "-17.8%"

[[record]]
compound = "CC(=O)c1ccc(N2CCN(C(=O)CCc3nnc4c5cc(-c6ccccc6)nn5ccn34)CC2)cc1"
result_value = "-8.28%"

[[record]]
compound = "COc1cccc(-n2ccn3c(SCC(=O)Nc4ccc(C(C)C)cc4)nnc3c2=O)c1"
result_value = "-10.59%"

[[record]]
compound = "CC(=O)c1ccc(NC(=O)Cn2nc3ccc(-c4ccc(C)cc4)nn3c2=O)cc1"
result_value = "-11.07%"

[[record]]
compound = "O=C(CSc1nnc2c(=O)n(-c3ccc(Br)cc3)ccn12)Nc1cc(F)ccc1F"
result_value = "-16.33%"

[[record]]
compound = "COc1ccc(C(C)NC(=O)CCc2nnc3ccc(-c4ccc(C)c(C)c4)nn23)cc1OC (stereo not given)"
result_value = "-6.29%"

[[record]]
compound = "Cn1c(=O)c2sccc2n2c(=O)n(CCOc3ccccc3)nc12"
result_value = "-29.95%"

[[record]]
compound = "CCOc1ccc(NC(=O)Cn2nc3c(N4CCCC4)nccn3c2=O)cc1"
result_value = "-8.38%"

[[record]]
compound = "O=C(Cn1nc2nc(Nc3ccc(F)cc3)ccn2c1=O)Nc1cc(F)ccc1F"
result_value = "-6.4%"

[[record]]
compound = "O=c1c2nnc(SCc3ccccc3)n2ccn1-c1ccc(Br)cc1"
result_value = "-7.93%"

